Test: MT-4 cytotoxicity assay
Format: cell-based, human
Settings: human, five days, Cell Titer Glo luminescence; read-out: MT-4 CC50

- compound: "COc1cc2c(cc1OCCCOC(C)(C)C)[C@H]1CCC(C)(C)N1n1cc(C(=O)O)c(=O)cc1-2"
  CC50 at 5 days: "> 10 µM"
- compound: "COc1cc2c(cc1C#Cc1cncn1C)[C@H]1CCC(C)(C)N1n1cc(C(=O)O)c(=O)cc1-2"
  CC50 at 5 days: "> 10 µM"
- compound: "COCc1cc2c(cc1N1CC[C@@H](COC)C1)[C@H]1CCC(C)(C)N1n1cc(C(=O)O)c(=O)cc1-2"
  CC50 at 5 days: "9.7 µM"
- compound: "COc1cc2c(cc1-c1cnn(C(F)F)c1)[C@H]1CCC(C)(C)N1n1cc(C(=O)O)c(=O)cc1-2"
  CC50 at 5 days: "3 µM"
- compound: "COCCCOc1cc2c(cc1OC(F)F)-c1cc(=O)c(C(=O)O)cn1N1[C@@H]2CCC1(C)C (single isomer, unassigned)"
  CC50 at 5 days: "> 10 µM"
- compound: "CC1(C)CC[C@@H]2c3cc(OCCCOC(F)(F)F)c(Cl)cc3-c3cc(=O)c(C(=O)O)cn3N21"
  CC50 at 5 days: "6.8 µM"
- compound: "COCCCOc1cc2c(cc1OC(C)C)-c1cc(=O)c(C(=O)O)cn1N1[C@@H]2CCC1(C)C"
  CC50 at 5 days: "> 10 µM"
- compound: "COCCCOc1cc2c(cc1OC(C)(C)C)-c1cc(=O)c(C(=O)O)cn1N1[C@H]2CCC1(C)C"
  CC50 at 5 days: "> 10 µM"
- compound: "COCCCOc1cc2c(cc1Cl)-c1cc(=O)c(C(=O)O)cn1N1[C@@H]2COCC1(C)C (single isomer, unassigned)"
  CC50 at 5 days: "> 10 µM"
- compound: "COCCCOc1cc2c(cc1Cl)-c1cc(=O)c(C(=O)O)cn1N1CCC[C@@H]21 (single isomer, unassigned)"
  CC50 at 5 days: "9.1 µM"
- compound: "COCCCOc1cc2c(cc1C1COC1)-c1cc(=O)c(C(=O)O)cn1N1[C@@H]2CCC1(C)C"
  CC50 at 5 days: "> 10 µM"
- compound: "COCCCOc1cc2c(cc1Cl)-c1cc(=O)c(C(=O)O)cn1N1[C@@H]2CCC1(COC)COC"
  CC50 at 5 days: "> 10 µM"
- compound: "COCCCOc1cc2c(cc1Cl)-c1cc(=O)c(C(=O)O)cn1[C@H]1[C@@H]2CCC1(C)C (single isomer, unassigned)"
  CC50 at 5 days: "7.9 µM"
- compound: "COCc1cc2c(cc1OCC1(COC)CC1)[C@H]1CCC(C)(C)N1n1cc(C(=O)O)c(=O)cc1-2"
  CC50 at 5 days: "> 10 µM"
- compound: "COCc1cc2c(cc1OCCn1nc3ccccn3c1=O)[C@H]1CCC(C)(C)N1n1cc(C(=O)O)c(=O)cc1-2"
  CC50 at 5 days: "> 10 µM"
- compound: "COCCCOc1cc2c(cc1Cl)-c1cc(=O)c(C(=O)O)cn1[C@H]1[C@H]2CCC1(C)C (racemic) [Example 31]"
  CC50 at 5 days: "> 10 µM"
- compound: "COCc1cc2c(cc1OCC13CC(C#N)(C1)C3)[C@H]1CCC(C)(C)N1n1cc(C(=O)O)c(=O)cc1-2"
  CC50 at 5 days: "> 10 µM"
- compound: "COCCCOc1cc2c(cc1C1CC1)-c1cc(=O)c(C(=O)O)cn1N1[C@@H]2CCC1(C)C"
  CC50 at 5 days: "8.7 µM"
- compound: "COCCCOc1cc2c(cc1OC)-c1cc(=O)c(C(=O)O)cn1N1[C@@H]2CCCC1(C)C (single isomer, unassigned)"
  CC50 at 5 days: "> 10 µM"
- compound: "CC1(C)CC[C@@H]2c3cc(OCCn4nc5ccccn5c4=O)c(C4CC4)cc3-c3cc(=O)c(C(=O)O)cn3N21"
  CC50 at 5 days: "> 10 µM"

Provenance of the data: patent US10442804B2
